Target: T1, human calcitonin receptor (hCTR) (human, UniProt P30988 25-474)
T1 construct: whole, on cells; also called human CT receptor
T1 sequence (looked up): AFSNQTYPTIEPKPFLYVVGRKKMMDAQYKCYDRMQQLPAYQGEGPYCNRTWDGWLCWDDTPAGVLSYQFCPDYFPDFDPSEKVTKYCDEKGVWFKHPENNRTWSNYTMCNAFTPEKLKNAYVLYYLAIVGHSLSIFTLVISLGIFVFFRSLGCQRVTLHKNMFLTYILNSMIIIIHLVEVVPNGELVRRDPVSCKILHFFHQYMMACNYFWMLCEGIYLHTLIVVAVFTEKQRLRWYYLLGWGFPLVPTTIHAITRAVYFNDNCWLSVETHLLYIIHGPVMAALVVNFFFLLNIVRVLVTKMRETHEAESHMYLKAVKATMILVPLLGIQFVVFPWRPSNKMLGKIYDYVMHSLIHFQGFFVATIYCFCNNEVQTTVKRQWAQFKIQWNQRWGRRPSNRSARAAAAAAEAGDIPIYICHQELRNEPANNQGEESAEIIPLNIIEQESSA
Test: competitive radioligand binding filter assay, hCTR membranes, displacement of 125I-hCT
Numbered stars: 1 amine (or outer) side, 2 acyl side, 3 side chain; on linkers, the order of the positions; unused ones are H or OH. Bridge positions count the residues as written; N and C are the ends. Square brackets hold non-standard residues; d marks the D form. Side chains are listed from the residue outwards. Ends that are not written are not given here. * marks the point of attachment. C20 diacid = O=C(O)CCCCCCCCCCCCCCCCCCC(=O)*; γGlu = O=C(O)[C@H](CCC(=O)[*:2])N[*:1]; αMeF = C[C@](N)(Cc1ccccc1)C(=O)O; NMeD = CN[C@@H](CC(=O)O)C(=O)O; NMeN = CN[C@@H](CC(N)=O)C(=O)O; αMeL = CC(C)C[C@](C)(N)C(=O)O; Orn = NCCC[C@H](N)C(=O)O; CH2 = C([*:1])[*:2]
Reported property: Ki (nM)
One number for each entry, in nM.

>>> observed_measurement("K([γGlu-γGlu-C20 diacid])CETATCATG[Orn]LAE[αMeF]LVRSSN[NMeD]FGPILPPTEVGSNTY-NH2 (bridge 2-7 via CH2, Acylated form of Compound V) [Compound VI]")
235
>>> observed_measurement("[γGlu]CNTATCATG[Orn]LAE[αMeF]LVRSSN[NMeN]FGPK([γGlu-γGlu-C20 diacid])LPPTEVGSNTY-NH2 (bridge 2-7 via CH2, Acylated form of Compound I) [Compound II]")
202
>>> observed_measurement("K([γGlu-γGlu-C20 diacid])CETATCATG[Orn][αMeL]AEFLVRSSHNFGPILPPTEVGSNTY-NH2 (bridge 2-7 via CH2, Acylated form of Compound VII) [Compound VIII]")
927

Proceed to the following item.
Input: For the binder [γGlu]CNTATCATG[Orn]LAE[αMeF]LVRSSN[NMeD]FGPK([γGlu-γGlu-C20 diacid])LPPTEVGSNTY-NH2 (bridge 2-7 via CH2, Acylated form of Compound III) [Compound IV] , what Ki is on record?
Output: 665
